# GI50 per entry
# Tested on: RXF 393
# method-summary: NCI tumour cell line growth inhibition, 48 h
Activity calls are given as the source filed them. Cut-off read from the data, not from the text of the source: active = GI50 up to about 1.1 µM and inactive = higher.
parameter-measured: GI50

molecule | target-of-assay | parameter-measured | assay-result
CCN(CC)c1nc(N(C)C)c2ccccc2n1 | RXF 393 | GI50 | 24 µM (inactive)
COc1cccc2c1[C@]1(O)C(O)CCCC21 (stereo not given in full) | RXF 393 | GI50 | > 100 µM (inactive)
C=C1C(=O)C23C(O)C1CCC2C12CO[C@]3(O)[C@@H](O)C1C(C)(C)CCC2O (stereo not given in full) | RXF 393 | GI50 | 7.93 µM (inactive)
Cc1nc(O)nc(CC(O)(c2ccccc2)c2ccccc2)c1-c1ccccc1 | RXF 393 | GI50 | > 100 µM (inactive)
S=C1NC(c2ccccc2)=NC(Cc2ccccc2)(c2ccccc2)N1c1ccccc1 (stereo not given) | RXF 393 | GI50 | 68.2 µM (inactive)
